System: NCI-H522 lung
experimentNotes: NCI-60 one-dose screen, 48 h (100 = growth as untreated, 0 = no growth, -100 = all killed)
conditionNotes: 10 µM
About 83,000 compounds went through this panel and 20% of them were active in at least one assay; those are over-represented in the sample as a whole.
valueType: growth (%)

- CCCCCCOc1ccc(/C=C/C(=O)c2ccc(B(O)O)cc2)cc1: 66.1
- FC(F)(F)c1ccc(-c2ncc(-c3ccc(C(F)(F)F)cc3)c(NCc3cc(C(F)(F)F)cc(C(F)(F)F)c3)n2)cc1: 43.3
- COc1ccc(-c2[nH]ncc2-c2cc(OC)c(OC)c(OC)c2)cc1: -36.8
- CCN(CCCNC(=O)Cc1cc(=O)oc2cc(N(C)C)ccc12)CCNc1ccnc2cc(Cl)ccc12: 56.8
- O=C(/C=C/c1nnc2n(Cc3ccccc3)c(=O)c3c4c(sc3n12)CCCC4)c1ccccc1: -3.27
- O=S(=O)(NC1c2ccccc2Oc2ccccc21)c1cc(Cl)ccc1Cl: 29.5
- COC(=O)[C@]12CC[C@@H](C)[C@H](C)[C@@H]1C1=CC[C@@H]3[C@@]4(C)CC(=O)[C@H](O)[C@@]5(C)COC(=C45)C[C@@]3(C)[C@]1(C)CC2: -76.3
- O=S(=O)(O)C1(O)CCCCC1: 91.7
- COc1ccc(N2CCN(c3nc(-c4ccccc4)c(C#N)c(=O)[nH]3)CC2)cc1: 92.7
- Oc1ccc(Cn2cc3c(c2-c2ccccc2)CCc2cnoc2-3)cc1: 84.5
- Cc1c(C(=O)N[C@H](CO)Cc2ccccc2)[nH]c2ccc(Cl)cc2c1=O: 83.8
- COc1cc(C(c2c[nH]c3ccccc23)N2CCCC2)ccc1OCc1ccccc1 (stereo not given): 71.1
- O/N=C1\CCC2CCCCC2C1 (stereo not given): 93.4
- Cc1cc(=O)oc2cc(OCc3cn(CC(O)CO)nn3)ccc12 (stereo not given): 107
- COc1ccc(C2CC(c3ccc(-c4ccccc4)cc3)=NN2c2ccc(S(N)(=O)=O)cc2)cc1 (stereo not given): 40.3
- NC1CCC(Nc2nc(NCc3ccc(-c4ccco4)nc3)c3ncn(C4CCCC4)c3n2)CC1 (stereo not given): -70.6
- Cc1ccc(C)c2c1sc1nc3n[nH]c(N)c3c(=N)n12: 87.4
- CC(=O)OCC(COC(C)=O)(COC(C)=O)COC(C)=O: 99.4
- Cn1c(=O)c2[nH]c(C(O)c3ccc(Cl)cc3)nc2n(C)c1=O (stereo not given): 96.7
- O=NN(CC(=O)N/N=C/C=C\c1ccccc1)CC(=O)N/N=C/C=C/c1ccccc1: 95.5

###

System: SK-MEL-2 melanoma
experimentNotes: NCI-60 one-dose screen, 48 h (100 = growth as untreated, 0 = no growth, -100 = all killed)
conditionNotes: 10 µM
Method: Growth inhibition of the SK-MEL-2 human tumor cell line is measured as a screen for anti-cancer activity. Cells are grown in 96 well plates and exposed to the test compound for 48 hours. Compounds are tested at a single concentration, which is 10^-5 M for most compounds. The reported endpoint is percent growth (GI% or GIPRCNT), where numbers from 0 - 100% represent growth inhibition, and numbers from -100% - 0 represent cell death. For example, a value of 40 represents 60% growth inhibition. […]
This is part of a sample that, as a whole, favours compounds with a hit. Of some 83,000 tested, about 20% had one in any assay.
valueType: growth (%)

- C[N+]1(CC2CO2)CCCCCC1 (stereo unspecified): 118
- O=c1oc2cc(OS(=O)(=O)C3CC3)ccc2c2c1CCCCCC2: 103
- CCCCCCCCCCN=C(c1ccc(N(C)C)cc1)c1ccc(N(C)C)cc1: 23.3
- CC(=O)n1nc(C(=O)OC(C)(C)C)c2cc(F)c(F)cc21: 100
- COc1cc(-c2nc3ccc(C)cc3[nH]2)ccc1OCc1nnc(-c2ccc(CC(C)C)cc2)o1: 97.3
- Cc1cc(=O)oc2cc(OCc3cn(CC(O)CO)nn3)ccc12 (stereo unspecified): 115

###

Test system: SK-MEL-2 melanoma
experimentNotes: NCI-60 one-dose screen, 48 h (100 = growth as untreated, 0 = no growth, -100 = all killed)
conditionNotes: 10 µM
The panel holds about 83,000 compounds, 20% with a hit somewhere; the sample as a whole holds those more often.
valueType: growth (%)

- CC(C)C[C@H](NC(=O)Cn1ccc(Nc2ccccc2)cc1=O)B(O)O: -2.39
- C#Cc1ccc(-n2c(/C=C/c3cc(OC)c(OC)c(OC)c3)nc3ncccc3c2=O)cc1: -2.4
- COc1ccc(-c2cc(/C=C3\C(=O)Nc4cc(Cl)ccc43)[nH]n2)cc1: -0.387
- Cn1cnc([N+](=O)[O-])c1/C=C1\Oc2ccc(Cl)cc2C1=O: 82.2
- C/C(=N/NC(=O)c1sc(=S)n(C)c1N)c1cc2cc(Cl)ccc2o1: 98.9

###

Test system: UACC-257 melanoma
experimentNotes: NCI-60 one-dose screen, 48 h (100 = growth as untreated, 0 = no growth, -100 = all killed)
conditionNotes: 10 µM
Compounds without any hit were thinned out: in the full panel of roughly 83,000, 20% have a hit.
Criterion: growth strictly less than 90%. Met: yes (1). Not met: no (0).

- O=C(C=P(c1ccccc1)(c1ccccc1)c1ccccc1)c1ccc(Br)cc1: no (0)
- CCCCCCCCCCSC(=N)N (tested in a mixture with another compound): no (0)
- CCCCCCCCCCCCc1ccc(C(=O)/C=C/C(=O)O)cc1: no (0)
- COc1ccc(C2C=C(c3ccc(Cl)cc3)N=C3SC=CN32)c(Br)c1 (stereo unspecified): yes (1)
- NC(=O)C1CCCN(Cc2c[nH]c3ccccc23)C1 (stereo unspecified): no (0)
- Nc1ccc2c(c1)Cc1cc(N)c(Cl)cc1-2: no (0)
- COc1ccc(-c2[nH]ncc2-c2cc(OC)c(OC)c(OC)c2)cc1: yes (1)
- C#CCNCCN1C(=O)c2ccc3c4c(ccc(c24)C1=O)C(=O)N(CCNCC#C)C3=O: yes (1)
- N#Cc1ccc(-n2cnc(NC(=O)[C@H]3CCN(C#N)C3)c2)cc1: yes (1)
- COc1cc2c3c(cccc3c1)C(=O)N(CCN1CCCC1)C2=O: yes (1)
- Cc1ccc(C)c2c1sc1nc3n[nH]c(N)c3c(=N)n12: no (0)
- COc1cc(C)c2sc3ccccc3c(=O)c2c1NCCN(C)C: yes (1)
- O=c1cc(CSc2nnc(-c3ccccc3)n2-c2ccc(F)cc2)c2ccc3ccccc3c2o1: no (0)
- COc1cccc(C(=O)NNc2nc(N3CCN(C4CCCCC4)CC3)nc(N3CCN(C(c4ccccc4)c4ccccc4)CC3)n2)c1: yes (1)
- CCN(CC)c1ccc(/C=C/C2=[N+](C)c3ccccc3C2(C)C)c(C)c1: yes (1)
- O=C(NC1CCN(Cc2ccccc2)CC1)c1cc(-c2ccncc2)nc2ccc(Cl)cc12: yes (1)
- N=C(N)c1ccc(-c2ccc(-c3ccccc3)s2)cc1F: yes (1)
- Cc1ccc(/C=C2\CN(Cc3cn(CCNc4ccnc5cc(Cl)ccc45)nn3)C/C(=C\c3ccc(C)cc3)C2=O)cc1: yes (1)
- O=C(N/N=c1/ccoc2cccnc12)N1CCN(c2ncccn2)CC1: yes (1)
- Fc1ccc2[nH]c3c(NCCCN4CCOCC4)ncnc3c2c1: no (0)
- CC(=O)Nc1ccc2c(c1)C(N1CC3CCC(CC3)C1)c1ccccc1-2 (stereo unspecified): yes (1)
- CCCn1c(=O)c2c(nc(-c3cccc(OCCCCl)c3)n2C)n(CCC)c1=O: yes (1)
- CS(=O)(=O)Nc1ccc(Nc2c3ccccc3nc3cc(Cl)ccc23)cc1: yes (1)
- COc1ccc(-c2nnc(N3CCN(C(=O)CN4CCN(c5ccc(Cl)cc5)CC4)CC3)nc2-c2ccc(OC)cc2)cc1: yes (1)
- COc1ccc2c(=O)cc(C(Cl)(Cl)Cl)oc2c1: yes (1)
- O=C(NNC(=O)c1ccncc1)Nc1ccc([N+](=O)[O-])cc1: no (0)
- COc1ccc(-c2ccc(-c3ccc(C(=N)N)c(F)c3)s2)cc1: yes (1)
- O=C(NCc1cn(Cc2cccc(Oc3ccccc3)c2)nn1)c1cccnc1Nc1ccccc1: yes (1)
- COc1ccc(-c2nsc3c2NC(=O)CC3c2cccc(Cl)c2)cc1 (stereo unspecified): yes (1)
- O=C1c2cc(Cl)ccc2-c2c(O)cc(Cl)cc21: no (0)
- CC(=O)OC1Oc2ccccc2-c2oc(=O)c(-c3ccc(F)cc3)cc21 (stereo unspecified): yes (1)
- CCOC(=O)/C(C#N)=C(/C)C1CC1: no (0)
- Oc1ccccc1-c1nnc(Cn2c(Cc3cccc4ccccc34)nc3ccccc32)o1: no (0)
- COc1ccc(-c2nc(-c3nc4ccc(OC)cc4[nH]3)c3ccccn23)cc1: no (0)

###

System: NCI-H322M lung
experimentNotes: NCI-60 one-dose screen, 48 h (100 = growth as untreated, 0 = no growth, -100 = all killed)
conditionNotes: 10 µM
Protocol: Growth inhibition of the NCI-H322M human Non-Small Cell Lung tumor cell line is measured as a screen for anti-cancer activity. Cells are grown in 96 well plates and exposed to the test compound for 48 hours. Compounds are tested at a single concentration, which is 10^-5 M for most compounds. The reported endpoint is percent growth (GI% or GIPRCNT), where numbers from 0 - 100% represent growth inhibition, and numbers from -100% - 0 represent cell death. […]
About 83,000 compounds went through this panel and 20% of them were active in at least one assay; those are over-represented in the sample as a whole.
valueType: growth (%)

* O=[N+]([O-])C1CC2C=CC1C2 (centres undefined) | 91.1
* CCOC(=O)c1cc2c(n1Cc1ccccc1)-c1oncc1CC2 | 60.4
* COc1ccc(CSc2nc3cc(OC)c(OC)cc3c(=O)n2-c2ccc(OC)cc2OC)cc1 | 80.6
* O=S(=O)(NCl)c1ccccc1 | 88.1
* COc1cc(-c2n/c(=C\c3c(O)[nH]c4ccccc34)cc3c2=Nc2ccccc2-3)cc(OC)c1OC | 47.3
* CN(C)c1ccc2c(c1)OC(N)=C(C#N)C2c1ccc2c(c1)CCCN2C (centres undefined) | 52.3
* COc1ccc2nc(/C=C/c3ccc(N(C)C)cc3)sc2c1 | 99.6
* COc1ccc(/C=C(\c2cc(OC)c(OC)c(OC)c2)c2nnc(-c3cccs3)o2)cc1 | 82.7
* O=[N+]([O-])c1ccc(-c2nc(-c3ccccc3)c(-c3ccccc3)n2-c2ccccc2)cc1 | 58.5
* Nc1cc2c(cc1Cl)-c1ccc(Cl)cc1C2=O | 103
* COc1cc(Cl)cc(-c2nn(-c3cccc(NC(=O)Nc4cccc(C(F)(F)F)c4)c3)cc2-c2ccncc2)c1 | 26.2
* CCN(CC)CCn1c(=N)n(CC(O)c2ccc(Cl)c(Cl)c2)c2ccccc21 (centres undefined) | 99.5
* CN1/C(=C\C(I)C(I)C2=[N+](C)c3ccccc3C2(C)C)C(C)(C)c2ccccc21 (centres undefined) | 20.9
* COc1cccc(C(=O)NNc2nc(N3CCOCC3)nc(N3CCN(C(c4ccccc4)c4ccccc4)CC3)n2)c1 | 82.8
* CC(C)C[C@H](NC(=O)CCn1ccc2ccccc2c1=O)B(O)O | 91
* CCN1CCN(c2ccc(Nc3ncnc4c3nnn4CCc3cc(OC)cc(OC)c3)cc2)CC1 | 95.6
* Oc1ccc(/C=N\Nc2ccccn2)c(O)c1 | -5.61
* CCN(CC)CCCOC(=O)Nc1ccccc1Cl | 129
* C=CCn1ccc(=O)nc1SC | 111
* COc1cc(/C=C2\C(=O)Nc3cc(C)c(O)cc32)cc(OC)c1OC | 80
* COc1ccc2c(c1)/C(=C/c1cc(OC)c(OC)c(OC)c1)C(=O)N2C | 39.5
* CC(C)c1[nH]nc2c(NCc3ccc(-c4ccccn4)cc3)nc(SCCN)nc12 | 10.3
* CCc1c(C)[nH]c(=O)c(C(N)=O)c1C#N | 104
* C=CCOc1ccc2c(c1)CC=C1[C@@H]2CC[C@]2(C)C(=O)/C(=N/O)C[C@@H]12 | 81.2
* O=c1oc2c3ccc4cnccc4c3[nH]c2c2ccccc12 | 78.6
* COc1ccc(-c2nnc(SCC(=O)c3ccccc3)o2)cc1 | 107
* CCCc1c(CC)c(=N)c2ccccc2n1C | 71
* COc1cc(C(c2c[nH]c3ccccc23)N2CCCC2)ccc1OCc1ccccc1 (centres undefined) | 72.7
* O=C1/C(=C/c2ccc([N+](=O)[O-])s2)Oc2ccc(Cl)cc21 | -43
* CCN(Cc1ccccc1)C1CCN(Cc2cc(Br)ccc2O)CC1 | 88.8
* Cc1ccc(NC(=O)/C=N/O)cc1C | 102
* COc1cc(C)c2sc3ccccc3c(=O)c2c1NCCN(C)C | 90.6
* C=CCNCCCN1C(=O)c2ccc3c4c(ccc(c24)C1=O)C(=O)N(CCCNCC=C)C3=O | -48.3
* O=C(NC1CCCC1)c1ccc(N2CCC(NCc3cccc(C(F)(F)F)c3)CC2)cc1 | 89.1
* CCOC(=O)Nc1ccc2c(c1)C(=O)N(CCOC)c1ccccc1O2 | 43
* CCc1nn2c(-c3ccccc3)c(-c3cc(OC)c(OC)c(OC)c3)nc2s1 | 82.4
* COc1c(C)c(C)c(OC)c2c1[nH]c(=O)c1c3cccnc3cn21 | 153
* COC(=O)c1c(C)nc(Nc2nc3ccccc3s2)nc1-c1ccc(Cl)cc1Cl | 106
* O=[N+]([O-])c1ccc(-c2nc(Cl)c3c(n2)CCCC3)o1 | 102
* Cc1cccc2c(Nc3ccc(NS(C)(=O)=O)cc3)c3ccc([N+](=O)[O-])cc3nc12 | 36.4
* COc1cc(C2C=C(c3ccc(Cl)cc3)N=C3SC(C)=CN32)cc(OC)c1OC (centres undefined) | 97.3
* Cc1ccc(C)c2c1sc1nc3n[nH]c(N)c3c(=N)n12 | 113
* COC(=O)c1ccc(Cn2ccc(=O)[nH]c2=O)cc1 | 116
* CCOc1nc(-c2ccccc2)cc2c(O)c(C(=O)NCCCO)[nH]c(=O)c12 | 106
